Data export: pIC50 values recorded with UniProt Q99705.
Sequence (Q99705 whole entry): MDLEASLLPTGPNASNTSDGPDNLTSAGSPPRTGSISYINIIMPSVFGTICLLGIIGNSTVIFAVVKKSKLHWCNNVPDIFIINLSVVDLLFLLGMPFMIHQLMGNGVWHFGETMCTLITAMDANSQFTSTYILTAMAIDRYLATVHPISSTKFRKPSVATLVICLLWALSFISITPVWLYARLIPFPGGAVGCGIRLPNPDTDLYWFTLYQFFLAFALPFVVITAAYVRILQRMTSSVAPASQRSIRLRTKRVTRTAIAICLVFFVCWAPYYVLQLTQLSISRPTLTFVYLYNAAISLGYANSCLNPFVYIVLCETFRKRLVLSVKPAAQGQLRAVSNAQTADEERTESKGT
Numbers only, as −log10 of the molar value.

Consider the worked cases shown below.
Cc1c(CCCN2CCCC2)nc2ccc(NC(=O)c3ccc(OCc4ccccc4)cc3)cn12 :: 9.31
Cc1c(C2CC2)nc2ccc(NC(=O)c3ccc(COc4ccccn4)cc3)cn12 :: 8.08

Go through the items and report each one's pIC50.
1. CCc1nc2ccc(NC(=O)c3ccc(/C=C/c4ccccc4)cc3)cn2c1C
2. CCc1nc2ccc(NC(=O)c3ccc(Oc4cc(Cl)ccn4)cc3)cn2c1C
3. Cc1c(CCCN2CCCC2)nc2ccc(NC(=O)c3ccc(/C=C/c4ccccn4)cc3)cn12
4. CCc1nc2ccc(NC(=O)c3ccc(C(F)Cc4ccccn4)cc3)cn2c1C (stereo not drawn)

OUT:
[8.89, 8.37, 9.33, 8.42]

Data provenance is patent US7566781B2.
